# tested_target: SUMO-activating enzyme (Homo sapiens, UniProt Q9UBT2)
# Sequence (Q9UBE0 whole entry): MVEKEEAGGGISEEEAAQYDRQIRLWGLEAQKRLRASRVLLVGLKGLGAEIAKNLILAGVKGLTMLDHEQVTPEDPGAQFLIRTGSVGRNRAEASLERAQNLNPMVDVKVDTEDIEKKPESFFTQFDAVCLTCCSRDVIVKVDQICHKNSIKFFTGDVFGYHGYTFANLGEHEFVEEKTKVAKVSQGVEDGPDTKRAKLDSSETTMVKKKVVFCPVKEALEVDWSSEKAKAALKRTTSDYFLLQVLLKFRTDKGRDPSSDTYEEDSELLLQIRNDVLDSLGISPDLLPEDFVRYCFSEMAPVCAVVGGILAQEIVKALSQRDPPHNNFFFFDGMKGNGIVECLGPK
# Sequence (Q9UBT2 whole entry): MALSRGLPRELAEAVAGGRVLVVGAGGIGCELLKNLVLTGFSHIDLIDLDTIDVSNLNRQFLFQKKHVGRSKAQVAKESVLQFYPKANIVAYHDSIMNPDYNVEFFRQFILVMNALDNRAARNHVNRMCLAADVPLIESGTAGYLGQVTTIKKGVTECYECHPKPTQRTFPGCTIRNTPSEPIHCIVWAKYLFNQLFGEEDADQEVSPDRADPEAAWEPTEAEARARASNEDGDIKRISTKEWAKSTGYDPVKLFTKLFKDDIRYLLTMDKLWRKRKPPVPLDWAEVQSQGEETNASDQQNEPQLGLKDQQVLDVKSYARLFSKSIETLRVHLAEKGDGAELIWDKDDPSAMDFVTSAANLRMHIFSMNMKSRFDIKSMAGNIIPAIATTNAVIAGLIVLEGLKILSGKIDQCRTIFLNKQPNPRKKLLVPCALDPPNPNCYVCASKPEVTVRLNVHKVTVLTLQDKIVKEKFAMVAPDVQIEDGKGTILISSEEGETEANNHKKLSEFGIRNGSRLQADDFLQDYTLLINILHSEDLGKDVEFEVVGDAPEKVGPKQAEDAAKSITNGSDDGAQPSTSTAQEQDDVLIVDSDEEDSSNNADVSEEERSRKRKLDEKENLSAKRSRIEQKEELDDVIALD
# assay_remarks: inhibitors of in vitro SUMOylation cascade, primary screen, biochemical, HTRF, uHTS (AID 2006)
# Assay type: protein-complex assay
Active and inactive are the calls of the source. Rule as the data show it: actives have a measured IC50 and inactives only a lower limit.
Returns: one label drawn from yes = active, no = inactive

# smiles_notation, tested_target, class_assignment
rows = [
    ("O=C(Nc1ccc2oc(-c3cccc4ccccc34)nc2c1)c1nnc[nH]1", "SUMO-activating enzyme (Homo sapiens, UniProt Q9UBT2)", "yes"),
    ("COc1cccc(/C=C2/SC(=S)N(CC(=O)NNC(=O)c3ccccc3O)C2=O)c1", "SUMO-activating enzyme (Homo sapiens, UniProt Q9UBT2)", "yes"),
]

What outcome does the record of this test show for `Cc1cccc(-c2nnc(S)n2/N=C/C=C/c2ccco2)c1` ?
no

Also `N#Cc1c(N2CCCCC2)nc(N)c2c(N)nc(SCC(=O)O)cc12` ?
yes

Also `O=C(N/N=C/c1ccc(Cl)cc1)c1nc(O)c2cc([N+](=O)[O-])ccc2n1` ?
yes

Also `O=C(Nc1nccs1)c1cc(-c2ccco2)nc2ccccc12` ?
yes

Source: ChEMBL document CHEMBL1201862
